experiment: in vitro; details: human
measured metric: CC50

Solved cases below.
COc1cccc2[nH]c(C(=O)N3C[C@H]4[C@@H]([C@H]3C(=O)N[C@@H](C[C@@H]3CCCNC3=O)C(=O)CO)C4(C)C)cc12
> 100 µM
COCC(=O)[C@H](C[C@@H]1CCNC1=O)NC(=O)[C@@H]1[C@H]2CCC[C@H]2CN1C(=O)c1cc2c(OC)cccc2[nH]1
> 100 µM
O=C1NCCC[C@H]1C[C@H](NC(=O)[C@@H]1[C@H]2CCC[C@H]2CN1C(=O)c1cc2ccccc2[nH]1)C(O)S(=O)(=O)O (stereo partly drawn)
> 100 µM
COc1cccc2[nH]c(C(=O)N3C[C@H]4[C@@H]([C@H]3C(=O)N[C@@H](C[C@@H]3CCCNC3=O)C(=O)C(=O)NC3CC3)C4(C)C)cc12
> 100 µM

Request: Indicate the recorded CC50 value for this molecule: CC(C)(C)C(=O)OCC(=O)[C@H](C[C@@H]1CCNC1=O)NC(=O)[C@@H]1[C@H]2CCC[C@H]2CN1C(=O)c1cc2c(Cl)cc(Cl)cc2[nH]1
Result: > 10 µM

Request: Indicate the recorded CC50 value for this molecule: O=C1NCC[C@H]1C[C@H](NC(=O)[C@@H]1[C@H]2CCC[C@H]2CN1C(=O)c1cc2c([nH]1)CCS2(=O)=O)C(=O)CO
Result: > 50 µM

Request: Indicate the recorded CC50 value for this molecule: COc1cccc2[nH]c(C(=O)N3C[C@@H]4CCC[C@@H]4[C@H]3C(=O)N[C@@H](C[C@@H]3CCCNC3=O)C(O)S(=O)(=O)O)cc12 (stereo partly drawn)
Result: > 100 µM

Request: Indicate the recorded CC50 value for this molecule: CSc1cccc2[nH]c(C(=O)N3C[C@@H]4CCC[C@@H]4[C@H]3C(=O)N[C@@H](C[C@@H]3CCNC3=O)C(=O)CO)cc12
Result: > 50 µM

---

target: 3CLpro (Severe acute respiratory syndrome coronavirus 2); assay: SARS-CoV-2 3CLpro protease assay (duplex, SAMDI-MS); type: biochemical; parameters: For the duplex assay, 3CLpro and HRV3C was added; conditions: 3CLpro, 30 mins preincubation, class symbols; read-out: SARS-Cov-2 IC50
pIC50: −log10 of the molar value.
measured metric: pIC50

O=C1NCC[C@H]1C[C@H](NC(=O)[C@@H]1[C@H]2CCC[C@H]2CN1C(=O)c1cc2c(Cl)cc(F)c(Cl)c2[nH]1)C(=O)CO
> 7.70
O=C1NCC[C@H]1C[C@H](NC(=O)[C@@H]1[C@H]2CCC[C@H]2CN1C(=O)c1cc2ncccc2[nH]1)C(=O)CO
6.70 to 7.70
O=C1NCC[C@H]1C[C@H](NC(=O)[C@@H]1[C@H]2CCC[C@H]2CN1C(=O)c1cc2c(Cl)cc(OCc3ccccc3)cc2[nH]1)C(=O)CO
6.70 to 7.70
COc1cccc2[nH]c(C(=O)N3CC4(CC4)C[C@H]3C(=O)N[C@@H](C[C@@H]3CCNC3=O)C(=O)CO)cc12
> 7.70

Request: Enter recorded pIC50 with 3CLpro (Severe acute respiratory syndrome coronavirus 2) for COc1cccc2[nH]c(C(=O)N3CCC4(CC4)C[C@H]3C(=O)N[C@@H](C[C@@H]3CCCNC3=O)C(=O)CO)cc12 here.
Result: 6.70 to 7.70

Request: Enter recorded pIC50 with 3CLpro (Severe acute respiratory syndrome coronavirus 2) for O=C(NC1CC1)C(=O)[C@H](C[C@@H]1CCNC1=O)NC(=O)[C@@H]1CC2(CCN1C(=O)c1cc3c(F)cccc3[nH]1)CC2 here.
Result: > 7.70
